Attribution: patent US10435400B2

Experiment: In vivo pharmacokinetic test in rats
Details: male, SD, rat, plasma, route not given (IV 1 mg/kg, oral gavage 20 mg/kg), read-out: Maximum plasma concentration Cmax
propertyName: Cmax (ng/mL)

molecule: C=CC(=O)Nc1cc(Nc2ncc(Cl)c(-c3cnn(C)c3)n2)c(OC)cc1N1CCC(N(C)C)CC1 [Compound Z-89]
Cmax [ng/mL]: 437
--
molecule: C=CC(=O)Nc1cc(Nc2ncc(F)c(-c3cnn(C)c3)n2)c(OC)cc1N1CCC(N(C)C)CC1 [Compound Z-90]
Cmax [ng/mL]: 408

----------
Assay: In vivo pharmacokinetic test in rats
Details: male, SD, rat, plasma, route not given (IV 1 mg/kg, oral gavage 20 mg/kg), read-out: Area under the curve AUC
propertyName: AUC (ng·h/mL)

compound: C=CC(=O)Nc1cc(Nc2ncc(F)c(-c3cnn(C)c3)n2)c(OC)cc1N1CCC(N(C)C)CC1 [Compound Z-90]
AUC / ng·h/mL: 6480
//
compound: C=CC(=O)Nc1cc(Nc2ncc(Cl)c(-c3cnn(C)c3)n2)c(OC)cc1N1CCC(N(C)C)CC1 [Compound Z-89]
AUC / ng·h/mL: 7190
